Assignment: determine reported IC50 for the given molecules.
System: full length human vWF binding to lyophilized platelets
Experiment Summary: Full length human von Willebrand Factor platelet binding assay (FACS)
Format: cell-based
Experimental Setup: 5 nM full length human vWF, lyophilized platelets, botrocetin; read-out: Inhibition of full length hVWF binding in FACS assay, Average IC50
One number for each entry, in nM.

For every listed record, write down its IC50.
1. AMX236.A12: DNA SELEX 2 aptamer clone (nucleic acid, DNA, backbone not given here, DNA SELEX 2 aptamer clone) CTACCTACGATCTGACTAGCTTGGTAGCGACTCTGTGGAGCTGCGGTTTGGTCGACGTCAGCTTACTCTCATGTAGTTCC
2. AMX.236.G1 (nucleic acid, DNA, backbone and methylation of C not given here) CTACCTACGATCTGACTAGCCTCAGATTGACTCCGGCTGACTTGTTTTAATCTTCTGAGTGCTTACTCTCATGTAGTTCC
3. AMX237.G6: DNA SELEX 2 aptamer clone (nucleic acid, DNA, backbone and methylation of C not given here, DNA SELEX 2 aptamer clone) DNA: CTACCTACGATCTGACTAGCGTGCAGTGCCTATTCCAGGCCGTGCGGTGCCTCCGTCACGCTTACTCTCATGTAGTTCC
4. AMX238.H5: DNA SELEX 2 aptamer clone (nucleic acid, DNA, backbone not given here, DNA SELEX 2 aptamer clone) DNA: CTACCTACGATCTGACTAGCGTGCAGTGCCTATTCTAGGCCGTGCGGTGCCTCCGTCACGCTTACTCTCATGTAGTTCC
5. AMX238.D12: DNA SELEX 2 aptamer clone (nucleic acid, DNA, backbone and methylation of C not given here, DNA SELEX 2 aptamer clone) DNA: CTACCTACGATCTGACTAGCTCCAGTGTTTCATTCAATAACCGTGCGGTGCCTCCGTGAGCTTACTCTCATGTAGTTCC
6. AMX237.A11: DNA SELEX 2 aptamer clone (nucleic acid, DNA, backbone and methylation of C not given here, DNA SELEX 2 aptamer clone) CTACCTACGATCTGACTAGCTCCAGTGTTTTATCCAATAACCGTGCGGTGCCTCCGTGAGCTTACTCTCATGTAGTTCC

[A]
10.7
46
1.9
0.658
2
2.2

For every listed record, write down its IC50.
1. AMX237.B11: DNA SELEX 2 aptamer clone (nucleic acid, DNA, backbone and methylation of C not given here, DNA SELEX 2 aptamer clone) DNA: CTACCTACGATCTGACTAGCTCCAGTGTTTTATCTAATAACCGTGCGGTGCCTCCGTGAGCTTACTCTCATGTAGTTCC
2. AMX237.A2: DNA SELEX 2 aptamer clone (nucleic acid, DNA, backbone and methylation of C not given here, DNA SELEX 2 aptamer clone) CTACCTACGATCTGACTAGCTCCAGTGTTTCATCCAATAACCGTGCGGTGCCTCCGTGAGCTTACTCTCATGTAGTTCC

[A]
1. 2.5
2. 3.5
